Cited source for all entries: patent US11964973B2

pIC50 for assorted compounds
- target_system: human DGKζ (Homo sapiens (Human))
- Sequence (Q13574 whole entry, looked up): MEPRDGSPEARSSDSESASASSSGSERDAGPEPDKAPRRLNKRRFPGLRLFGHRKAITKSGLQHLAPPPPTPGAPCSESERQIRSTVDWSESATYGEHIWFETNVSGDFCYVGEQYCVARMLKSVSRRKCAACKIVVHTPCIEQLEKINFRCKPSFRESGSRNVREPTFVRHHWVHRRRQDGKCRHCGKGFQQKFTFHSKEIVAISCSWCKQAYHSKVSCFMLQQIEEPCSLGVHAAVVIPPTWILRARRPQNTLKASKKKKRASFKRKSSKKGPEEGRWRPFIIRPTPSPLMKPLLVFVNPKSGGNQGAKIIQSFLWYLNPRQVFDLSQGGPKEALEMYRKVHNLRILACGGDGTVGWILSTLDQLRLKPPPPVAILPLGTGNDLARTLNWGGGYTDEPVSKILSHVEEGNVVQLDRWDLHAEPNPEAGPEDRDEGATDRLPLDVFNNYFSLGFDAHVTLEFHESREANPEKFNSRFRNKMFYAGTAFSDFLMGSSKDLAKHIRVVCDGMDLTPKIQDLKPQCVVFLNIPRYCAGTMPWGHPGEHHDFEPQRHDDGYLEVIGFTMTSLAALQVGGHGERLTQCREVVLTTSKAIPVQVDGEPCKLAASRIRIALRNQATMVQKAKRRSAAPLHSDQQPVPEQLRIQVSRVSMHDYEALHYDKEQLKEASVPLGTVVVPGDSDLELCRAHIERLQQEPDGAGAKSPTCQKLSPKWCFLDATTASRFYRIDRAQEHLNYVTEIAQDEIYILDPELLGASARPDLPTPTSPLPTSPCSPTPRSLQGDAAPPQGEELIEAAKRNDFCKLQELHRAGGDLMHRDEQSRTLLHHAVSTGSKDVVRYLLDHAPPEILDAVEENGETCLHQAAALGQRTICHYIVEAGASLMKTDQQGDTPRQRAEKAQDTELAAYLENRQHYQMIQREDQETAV
- test_details: biochemical
- Type: biochemical
- condition_set: Table A; liposome (LIPGLO) assay; read-out: DGKζ
pIC50: −log10 of the molar value.

{"columns": ["compound", "pIC50"],
 "data": [
  ["Cn1c(=O)nc(N2CC[C@@H](Oc3cccc(C(F)(F)F)c3)[C@H](O)C2)c2nc(C#N)ccc21 (single isomer, unassigned) [Example 274]", 4.82],
  ["CCc1cnc(O[C@H]2CCN(c3cc(=O)n(C)c4ccc(C#N)nc34)C[C@H]2C)nc1 [Example 221]", 5.74],
  ["CC[C@@H]1CN(c2cc(=O)n(C)c3ccc(C#N)nc23)CC[C@H]1Oc1ccc(OC(C)C)cn1 [Example 192]", 6.38],
  ["CC[C@@H]1CN(c2cc(=O)n(C)c3ccc(C#N)nc23)CC[C@H]1Oc1ccc(OC(C)C)cn1 (single isomer, unassigned) [Example 194]", 5.74],
  ["C[C@@H]1CN(c2c(C#N)c(=O)n(C)c3ccc(C#N)nc23)CC[C@@H]1Oc1ccc(C(F)(F)F)cc1 [Example 191]", 5.07],
  ["CC(C)c1ccc(O[C@H]2CCN(c3cc(=O)n(C)c4ccc(C#N)nc34)C[C@H]2C)cc1 (single isomer, unassigned) [Example 183]", 6.03]
]}
